target.system: native mouse MET on living mouse cells (mouse, UniProt P16056 25-1379)
assay.remarks: cell-based or functional assay
Each entry below lists one item and its recorded cell scattering score, MLP29, 0.037 nM value.
Dear colleague, please return just the value in score 0-4, with no unit written.

>  <binder>
chimeric llama-human IgG1 mAb 71G12 (antibody, V domains shown) VH: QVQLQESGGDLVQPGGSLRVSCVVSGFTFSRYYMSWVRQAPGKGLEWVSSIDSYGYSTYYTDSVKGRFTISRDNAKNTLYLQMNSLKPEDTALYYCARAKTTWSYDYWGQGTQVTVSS VL: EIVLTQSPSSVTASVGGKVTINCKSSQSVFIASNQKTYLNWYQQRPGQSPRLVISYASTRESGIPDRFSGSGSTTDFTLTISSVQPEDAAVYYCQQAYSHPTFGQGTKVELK

>  <property.label>
cell scattering score, MLP29, 0.037 nM

>  <quantity.unit>
score 0-4

>  <experimental.result>
0

$$$$

Measured cell scattering score, MLP29, 0.037 nM, chimeric llama-human IgG1 mAb 71C3 (antibody, V domains shown) VH: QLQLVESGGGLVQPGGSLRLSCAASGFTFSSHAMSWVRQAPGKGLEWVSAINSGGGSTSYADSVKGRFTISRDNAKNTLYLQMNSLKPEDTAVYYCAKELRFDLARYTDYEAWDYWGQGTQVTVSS VL: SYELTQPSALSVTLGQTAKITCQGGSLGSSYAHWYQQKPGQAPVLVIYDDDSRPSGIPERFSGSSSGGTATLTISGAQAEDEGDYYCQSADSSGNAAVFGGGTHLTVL : 0

Measured cell scattering score, MLP29, 0.037 nM, chimeric llama-human IgG1 mAb 71G2 (antibody, V domains shown) VH: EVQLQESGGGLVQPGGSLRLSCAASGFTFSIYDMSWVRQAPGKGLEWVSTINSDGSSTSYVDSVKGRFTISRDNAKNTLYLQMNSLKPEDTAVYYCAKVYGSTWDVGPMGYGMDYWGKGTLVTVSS VL: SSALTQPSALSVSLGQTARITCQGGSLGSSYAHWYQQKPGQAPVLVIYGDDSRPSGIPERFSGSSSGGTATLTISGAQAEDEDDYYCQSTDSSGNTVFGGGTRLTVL : 2

Measured cell scattering score, MLP29, 0.037 nM, chimeric llama-human IgG1 mAb 76G7 (antibody, V domains shown) VH: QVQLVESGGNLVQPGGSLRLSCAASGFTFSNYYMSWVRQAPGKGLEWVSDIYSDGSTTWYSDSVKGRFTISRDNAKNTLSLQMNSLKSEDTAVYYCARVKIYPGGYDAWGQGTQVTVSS VL: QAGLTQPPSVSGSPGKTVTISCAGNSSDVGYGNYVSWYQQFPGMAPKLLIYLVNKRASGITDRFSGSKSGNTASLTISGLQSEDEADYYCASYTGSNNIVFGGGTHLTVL : 0
